Source listed as patent US20140315933A1.

target: URAT-1 transporter (Homo sapiens); construct: expressed in transfected cells; test: URAT-1 inhibitor activity: [14C]-uric acid uptake into CHO-URAT1(L)GFP#8 (CHO#8) cells, scintillation proximity; type: cell-based
Sequence (Q96S37 with tags, fused parts or gaps): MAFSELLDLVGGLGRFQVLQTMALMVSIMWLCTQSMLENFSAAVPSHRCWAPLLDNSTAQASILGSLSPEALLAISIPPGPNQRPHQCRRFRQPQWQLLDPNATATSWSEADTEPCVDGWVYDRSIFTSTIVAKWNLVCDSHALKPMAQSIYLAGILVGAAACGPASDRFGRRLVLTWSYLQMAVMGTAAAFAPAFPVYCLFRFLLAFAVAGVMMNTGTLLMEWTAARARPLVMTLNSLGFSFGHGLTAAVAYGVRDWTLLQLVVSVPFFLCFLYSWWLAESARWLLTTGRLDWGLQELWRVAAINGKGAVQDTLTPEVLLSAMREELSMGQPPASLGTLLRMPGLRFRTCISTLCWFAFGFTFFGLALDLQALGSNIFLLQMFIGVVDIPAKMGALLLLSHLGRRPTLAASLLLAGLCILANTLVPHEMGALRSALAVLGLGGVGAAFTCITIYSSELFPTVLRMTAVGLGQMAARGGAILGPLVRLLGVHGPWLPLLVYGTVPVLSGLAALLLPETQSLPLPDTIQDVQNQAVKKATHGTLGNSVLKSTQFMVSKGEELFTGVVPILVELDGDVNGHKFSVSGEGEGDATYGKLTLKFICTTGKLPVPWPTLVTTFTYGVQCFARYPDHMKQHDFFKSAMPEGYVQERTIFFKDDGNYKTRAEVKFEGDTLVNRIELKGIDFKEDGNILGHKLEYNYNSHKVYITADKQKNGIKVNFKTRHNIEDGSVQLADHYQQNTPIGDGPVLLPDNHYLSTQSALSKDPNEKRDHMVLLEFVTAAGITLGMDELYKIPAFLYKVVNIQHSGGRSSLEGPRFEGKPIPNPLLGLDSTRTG
experimentalEndpoint: pIC50
When answering, recall that pIC50 equals minus log10 of the concentration in mol/L, and write that number alone.

Below are worked cases with known answers.
{"compound": "COc1c(F)ccc(Oc2ccc(S(=O)(=O)Nc3ncns3)cc2C#N)c1C [compound 264]", "pIC50": 5.78}
{"compound": "COc1cc(Cl)ccc1Oc1cc(F)c(S(=O)(=O)Nc2ncns2)cc1Cl [Example 154]", "pIC50": 5.79}
{"compound": "Cn1ccc(NS(=O)(=O)c2ccc(Oc3ccc(C#N)c(Cl)c3)c(C#N)c2)n1 [Example 4]", "pIC50": 5.47}
{"compound": "COc1cc(Cl)cc(Oc2ccc(S(=O)(=O)Nc3ncns3)cc2C#N)c1 [compound 269]", "pIC50": 6.56}
{"compound": "N#Cc1cc(S(=O)(=O)Nc2ncc(Cl)s2)ccc1Oc1cc(Cl)ccc1Cl [Example 86]", "pIC50": 6.17}

// below: pIC50 requested for another compound
# input Which measured pIC50 value corresponds to N#Cc1ccc(Oc2ccc(S(=O)(=O)Nc3ncns3)cc2C#N)c(F)c1 [Example 51] ?
# output 5.67
